assay: AUClast in healthy human at […], po; format: ADME, organism-based; parameters: time 0 - last, route oral; settings: plasma
experimental_endpoint: AUC(0-t) (ng·h/mL)

>>> df
                                   compound  observed_value
0  CC[C@@H]([C@H](C)O)n1ncn(-c2ccc(N3CCN(c4ccc(OC[C@@H]5CO[C@@](Cn6cncn6)(c6ccc(F)cc6F)C5)cc4)CC3)cc2)c1=O [POSACONAZOLE]           10400

---

test: AUClast in healthy human at […], po by ITT analysis; assay type: ADME, organism-based; design: time 0 - last, route oral; details: plasma
experimental_endpoint: AUC(0-t) (ng·h/mL)

>>> print(df.to_string())
                                   compound  experimental_endpoint  observed_value
0  CC[C@@H]([C@H](C)O)n1ncn(-c2ccc(N3CCN(c4ccc(OC[C@@H]5CO[C@@](Cn6cncn6)(c6ccc(F)cc6F)C5)cc4)CC3)cc2)c1=O [POSACONAZOLE]               AUC(0-t)            9100
